The reported numbers originate from the supplement of paper PMC6555819.

Task for the reader: assign each of the following sequences its reported PBM binding z-score.
Tested on: THRa:RXRa (NR concentration 90 nM, RXRa partner concentration 90 nM)
Experiment: PBM binding z-score (relative to random genomic background probes); higher = stronger binding; sequences stand for … in GC…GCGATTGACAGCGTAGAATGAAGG

Exercise: Bench note: what PBM binding z-score did CGTCCAAGGTCAAAGGTAAGTGAAGAGATGACGG show?
Key: 3.91

Exercise: Bench note: what PBM binding z-score did CCGACTGGGGCAGAAAGGTTATCATACCATCCGG show?
Key: 0.759

Exercise: Bench note: what PBM binding z-score did TCATATAGGTAAATGCTAGGCGAAAGTCCGATCT show?
Key: 0.231

Exercise: Bench note: what PBM binding z-score did TCTTGTAGAACAAAGGTTAAGAAAGCCGAAGCCT show?
Key: 1.05

Exercise: Bench note: what PBM binding z-score did TAGCCTAGGTCATTCAGGGGCCCGTATAGAAAGC show?
Key: 3.61

Exercise: Bench note: what PBM binding z-score did GCTGCTAGGGCAACTGATGGTCAGCTAAAGCTCG show?
Key: -0.0894

Exercise: Bench note: what PBM binding z-score did AGAGACAGGTGATGAAGGTAACTCAGGCTATCAT show?
Key: 1.25

Exercise: Bench note: what PBM binding z-score did TCATATAGGTAAATGCGAGGTGAAAGTCCGATCT show?
Key: 2.78

Exercise: Bench note: what PBM binding z-score did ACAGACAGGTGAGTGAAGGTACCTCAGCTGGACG show?
Key: 0.291

Exercise: Bench note: what PBM binding z-score did TCGAGTAAGTTAGGGGCATTCAGAATGGCGTCGA show?
Key: 1.08

Exercise: Bench note: what PBM binding z-score did TCATATAGGTAAAAGGTGAAAGTTGGTGTGGTAA show?
Key: 1.9

Exercise: Bench note: what PBM binding z-score did ATCTCTAGGTAACAAGTTCCGTGAAAGAGAGGAC show?
Key: 0.983

Exercise: Bench note: what PBM binding z-score did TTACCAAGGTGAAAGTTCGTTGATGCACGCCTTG show?
Key: 2.41

Exercise: Bench note: what PBM binding z-score did AGAACGAGGGCAATCAGTTGATAGCACGGGTGGC show?
Key: 1.04

Exercise: Bench note: what PBM binding z-score did TCTTGCAGATCAGCAGGTTAAGAAAGCTGGCCAA show?
Key: 0.0241

Exercise: Bench note: what PBM binding z-score did ACTATTAGTTGACTTAAGGCAACCGATACGACGC show?
Key: 2.4

Exercise: Bench note: what PBM binding z-score did TCATATAGGTAAAACAGGTGAAAGTCGGCATCTA show?
Key: 0.827

Exercise: Bench note: what PBM binding z-score did ACTAGATGGTCAGCTGAGGTCACACACAATTCGG show?
Key: 5.09

Exercise: Bench note: what PBM binding z-score did CATACTGGGCCATTCAGAGGTCATTGATCATATG show?
Key: 3.21

Exercise: Bench note: what PBM binding z-score did ACATACAGGTGAGTGAAGGTAACTCAGCTGGACG show?
Key: 2.21

Exercise: Bench note: what PBM binding z-score did TCATATAGGTAAATGGTGAAAGTCGGTGTGGTAA show?
Key: 0.0433

Exercise: Bench note: what PBM binding z-score did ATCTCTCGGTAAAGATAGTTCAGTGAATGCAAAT show?
Key: 0.376

Exercise: Bench note: what PBM binding z-score did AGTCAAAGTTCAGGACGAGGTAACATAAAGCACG show?
Key: 3.73

Exercise: Bench note: what PBM binding z-score did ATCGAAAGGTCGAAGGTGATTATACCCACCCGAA show?
Key: 1.97

Exercise: Bench note: what PBM binding z-score did GCAGAAAGGTGAAACGCAGGTAACTCAGGGTGGC show?
Key: 2.25

Exercise: Bench note: what PBM binding z-score did CGAACTAGGTCAAGGAGAGTGAATCTCCGCACGC show?
Key: 2.28

---

Test system: RARb:RXRa (NR concentration 270 nM, RXRa partner concentration 90 nM)
Test: PBM binding z-score (relative to random genomic background probes); higher = stronger binding; sequences stand for … in GC…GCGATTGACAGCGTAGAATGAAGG
Assay readout: PBM binding z-score
# answer = number (no unit)

Exercise: Bench note: what PBM binding z-score did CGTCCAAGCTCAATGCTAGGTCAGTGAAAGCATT show?
Key: 0.961

Exercise: Bench note: what PBM binding z-score did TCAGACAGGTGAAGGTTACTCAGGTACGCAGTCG show?
Key: 1.83

Exercise: Bench note: what PBM binding z-score did TCATATAGGTTAACAGGTGAAAGTCCGTAAGTTA show?
Key: 2.08

Exercise: Bench note: what PBM binding z-score did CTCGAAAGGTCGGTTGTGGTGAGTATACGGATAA show?
Key: 3.03

Exercise: Bench note: what PBM binding z-score did GCTTGTAGATGAAGGTTAAGAAAGACTAAGCTAA show?
Key: 0.535

Exercise: Bench note: what PBM binding z-score did ATACGTAGGTTAAGGGTCATTCAGGTTGGTTCGC show?
Key: 3.7

Exercise: Bench note: what PBM binding z-score did CCGAGTAGGTTAAGGGGCATTCAGGCAACGGTGA show?
Key: 1.51

Exercise: Bench note: what PBM binding z-score did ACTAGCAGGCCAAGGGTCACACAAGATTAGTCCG show?
Key: 3.76

Exercise: Bench note: what PBM binding z-score did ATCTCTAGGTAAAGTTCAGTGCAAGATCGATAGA show?
Key: 2.78

Exercise: Bench note: what PBM binding z-score did ACTATTAGCTGACTTAGGGCAACCGATACGACGC show?
Key: 0.676

Exercise: Bench note: what PBM binding z-score did GGAACGAGGGTAAGTTGATAGCAGAGTTTGATGG show?
Key: 0.727

Exercise: Bench note: what PBM binding z-score did CGAACTAGGTCATTGACAGGACAGGGAATAGTAA show?
Key: 3.69

---

System: PPARg DBDmut:RXRa IVT, anti-PPARg (DBD mutation: PPARg1 K132A/R137A, NR concentration 270 nM, RXRa partner concentration 90 nM)
Assay: PBM binding z-score (relative to random genomic background probes); higher = stronger binding; sequences stand for … in GC…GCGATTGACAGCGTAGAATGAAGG
So basically: PBM binding z-score at 0.7 or higher? That is fulfilled. Lower than 0.7? That is not fulfilled.

Exercise: Please tell me: is the sequence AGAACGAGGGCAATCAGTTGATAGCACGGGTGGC at or over 0.7 in terms of PBM binding z-score?
Key: not fulfilled

Exercise: Please tell me: is the sequence ACTAGTTGGTCAGCTGAGGTCACACGCAATTCGG at or over 0.7 in terms of PBM binding z-score?
Key: not fulfilled

Exercise: Please tell me: is the sequence AGAATGAGGATATACGTAGATCAGGGAAGAAAGT at or over 0.7 in terms of PBM binding z-score?
Key: not fulfilled

Exercise: Please tell me: is the sequence CCTTACGGGTCACTCCAGGTTAGAGCATCGGAGT at or over 0.7 in terms of PBM binding z-score?
Key: not fulfilled

Exercise: Please tell me: is the sequence GCTCGGAGGACAAGGTCAGTGCTTTGTCCGTAGA at or over 0.7 in terms of PBM binding z-score?
Key: not fulfilled

Exercise: Please tell me: is the sequence CCTAATAGTTGACCATAAGGGCAACCGAAGCTCG at or over 0.7 in terms of PBM binding z-score?
Key: not fulfilled

Exercise: Please tell me: is the sequence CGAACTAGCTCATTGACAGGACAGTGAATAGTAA at or over 0.7 in terms of PBM binding z-score?
Key: not fulfilled

Exercise: Please tell me: is the sequence CGTCGAAGTTCAACTAAGGTAACGTAAAGCACGC at or over 0.7 in terms of PBM binding z-score?
Key: not fulfilled

Exercise: Please tell me: is the sequence ACTATTATTTGACTTAGGGCAACCGATACGACGC at or over 0.7 in terms of PBM binding z-score?
Key: fulfilled

Exercise: Please tell me: is the sequence ATCTCTAGGTAAGACTCAGTTCATTGAAGAACGC at or over 0.7 in terms of PBM binding z-score?
Key: fulfilled

Exercise: Please tell me: is the sequence CGAACTAGGTCAGAACAGGACAGTGACGGATGAT at or over 0.7 in terms of PBM binding z-score?
Key: fulfilled

Exercise: Please tell me: is the sequence CAGCCTAGGTCAGGGCTAGTATAGGAGGAACGTT at or over 0.7 in terms of PBM binding z-score?
Key: not fulfilled

Exercise: Please tell me: is the sequence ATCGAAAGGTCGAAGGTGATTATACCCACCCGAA at or over 0.7 in terms of PBM binding z-score?
Key: fulfilled

Exercise: Please tell me: is the sequence ATCGAAAGGTCGACGTGAGTATAGAGAAAGGGAA at or over 0.7 in terms of PBM binding z-score?
Key: fulfilled

Exercise: Please tell me: is the sequence TTACCAAGGTGAAGATCGTTGATCCCTCTGTAGA at or over 0.7 in terms of PBM binding z-score?
Key: not fulfilled

Exercise: Please tell me: is the sequence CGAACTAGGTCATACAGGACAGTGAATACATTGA at or over 0.7 in terms of PBM binding z-score?
Key: fulfilled

Exercise: Please tell me: is the sequence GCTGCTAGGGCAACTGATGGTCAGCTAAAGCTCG at or over 0.7 in terms of PBM binding z-score?
Key: not fulfilled

Exercise: Please tell me: is the sequence CTACCAGGGTGAACAAGGTCGTTGATTACTATTC at or over 0.7 in terms of PBM binding z-score?
Key: not fulfilled

Exercise: Please tell me: is the sequence TCTCGGAGAACACGAAAGGTCAGAGCTCGACATC at or over 0.7 in terms of PBM binding z-score?
Key: not fulfilled

Exercise: Please tell me: is the sequence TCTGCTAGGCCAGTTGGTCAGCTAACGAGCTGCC at or over 0.7 in terms of PBM binding z-score?
Key: not fulfilled

Exercise: Please tell me: is the sequence GCTGCTAGGTCAGGTTGGTCAGTTAACGGGTACG at or over 0.7 in terms of PBM binding z-score?
Key: not fulfilled

Exercise: Please tell me: is the sequence ATCTCTAGGTAACCAATTTCAGTGAATGCCGAAC at or over 0.7 in terms of PBM binding z-score?
Key: fulfilled

Exercise: Please tell me: is the sequence GATACAGGGTTAAGGCCAGAGTACGCGTATTGAT at or over 0.7 in terms of PBM binding z-score?
Key: not fulfilled

Exercise: Please tell me: is the sequence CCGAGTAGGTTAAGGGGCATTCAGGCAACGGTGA at or over 0.7 in terms of PBM binding z-score?
Key: not fulfilled

Exercise: Please tell me: is the sequence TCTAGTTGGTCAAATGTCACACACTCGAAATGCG at or over 0.7 in terms of PBM binding z-score?
Key: fulfilled
